molecular target: rBoNT/A LC (Clostridium botulinum, UniProt P0DPI0); type: biochemical
Sequence (P0DPI0 3-448, added parts left off): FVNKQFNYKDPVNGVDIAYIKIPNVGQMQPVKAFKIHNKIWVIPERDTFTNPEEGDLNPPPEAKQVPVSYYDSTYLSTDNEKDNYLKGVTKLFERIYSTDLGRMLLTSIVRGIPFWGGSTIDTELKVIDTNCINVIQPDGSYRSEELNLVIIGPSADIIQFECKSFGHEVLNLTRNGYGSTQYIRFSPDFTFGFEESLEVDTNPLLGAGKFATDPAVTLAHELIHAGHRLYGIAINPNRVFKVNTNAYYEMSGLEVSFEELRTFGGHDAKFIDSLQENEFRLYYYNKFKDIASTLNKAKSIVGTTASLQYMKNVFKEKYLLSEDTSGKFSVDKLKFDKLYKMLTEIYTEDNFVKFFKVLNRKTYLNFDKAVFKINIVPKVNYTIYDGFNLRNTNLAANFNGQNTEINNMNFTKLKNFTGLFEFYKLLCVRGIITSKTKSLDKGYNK

Molecule | effect on activity of the rBoNT/A LC
[Cl][Hg][Cl] [Mercuric chloride] | completely abolished
O=C(O)c1cc[c]([Hg][Cl])cc1 [p-C1-Mercuribenzoate] | completely abolished
